Assay: Serum pharmacokinetics of CDPs after oral administration of DHG (targeted LC-MS, noncompartmental analysis)
Settings: serum, mice, oral DHG 1000 mg/kg
C max class ranges: range A (below 80 ng/mL), range B (80 ng/mL to below 400 ng/mL), range C (400 ng/mL or more)

INSERT INTO measurements (compound, label) VALUES
  ('O=C1N[C@@H](Cc2cnc[nH]2)C(=O)N2CCC[C@@H]12', 'range A'),
  ('CC(C)CC1NC(=O)C2CC(O)CN2C1=O (centres unmarked)', 'range B');

Textbook exercise: identify the category of the compound given here, "O=C1NCC(=O)N2CCC[C@@H]12" , according to its measured value.
range C

Which bin should I file O=C1NCC(=O)N2CC(O)CC12 (centres unmarked) under?
range C

Which category does the recorded C max put "O=C1[C@@H]2CCCN2C(=O)[C@@H]2CCCN12" in?
range B

// return the class label for "CC[C@H](C)[C@@H]1NC(=O)[C@@H]2CCCN2C1=O"
range A

Kindly state the category for this compound: "O=C1N[C@@H](Cc2ccccc2)C(=O)N2C[C@@H](O)C[C@@H]12"
range A
